experiment: Bioavailability of phenylephrine: plasma levels after delivery to the colon via Enterion capsules or oral Sudafed PE; format: in vivo, human; conditions: both sexes, human, plasma, oral; 30 mg PE-colon (Regimen C) n = 6; mean ± SD; read-out: Cmax, unconjugated Phenylephrine
Counter-ions that a name gives are not always drawn.
measure: Cmax (ng/mL)
Write the answer as a number in ng/mL, unit excluded.

Note to self: Cmax recorded for CNC[C@H](O)c1cccc(O)c1 [Phenylephrine hydrochloride, phenylephrine hydrochloride] was 0.468

###

Assay: Bioavailability of phenylephrine: plasma levels after delivery to the colon via Enterion capsules or oral Sudafed PE
Type: in vivo, human
Conditions: both sexes, human, plasma, oral; 10 mg to colon via Enterion capsule (Regimen A); 0.75 h post-dose; read-out: Mean plasma concentration (Unconjugated)
Description: The following study was conducted to examine the phenylephrine absorption behavior in GI tract. […] Enterion™ capsules (Pharmaceutical Profiles Ltd, UK) allow for deployment of drug delivery at a desired location within the GI tract. […] The plasma was analyzed for phenylephrine in its conjugated and unconjugated forms. The amount of conjugated phenylephrine was calculated by subtracting the amount of unconjugated phenylephrine assayed from the amount of total phenylephrine assayed. […]
Counter-ions that a name gives are not always drawn.
measure: concentration at […] (ng/mL)
Please give a number only; it is taken to be in ng/mL.

concentration at […] reported for this compound CNC[C@H](O)c1cccc(O)c1 [Phenylephrine hydrochloride, phenylephrine hydrochloride] : 0.125

###

assay: Bioavailability of phenylephrine: plasma levels after delivery to the colon via Enterion capsules or oral Sudafed PE; assay type: in vivo, human; details: both sexes, human, plasma, oral; 10 mg to colon via Enterion capsule (Regimen A); 12 h post-dose; read-out: Mean plasma concentration (Unconjugated)
Counter-ions that a name gives are not always drawn.
measure: concentration at 12 h (ng/mL)
Respond numerically; units are ng/mL and should not be typed.

# concentration at 12 h of CNC[C@H](O)c1cccc(O)c1 [Phenylephrine hydrochloride, phenylephrine hydrochloride] = 0.058

###

Assay: Bioavailability of phenylephrine: plasma levels after delivery to the colon via Enterion capsules or oral Sudafed PE
Assay type: in vivo, human
Conditions: both sexes, human, plasma, oral; 10 mg to colon via Enterion capsule (Regimen A); 0.5 h post-dose; read-out: Mean plasma concentration (Unconjugated)
Experimental: The following study was conducted to examine the phenylephrine absorption behavior in GI tract. […] Enterion™ capsules (Pharmaceutical Profiles Ltd, UK) allow for deployment of drug delivery at a desired location within the GI tract. […] The plasma was analyzed for phenylephrine in its conjugated and unconjugated forms. The amount of conjugated phenylephrine was calculated by subtracting the amount of unconjugated phenylephrine assayed from the amount of total phenylephrine assayed. […]
Counter-ions that a name gives are not always drawn.
measure: concentration at 0.5 h (ng/mL)
Reply with just the number (in ng/mL).

# concentration at 0.5 h of CNC[C@H](O)c1cccc(O)c1 [Phenylephrine hydrochloride, phenylephrine hydrochloride] = 0.145

###

test: Bioavailability of phenylephrine: plasma levels after delivery to the colon via Enterion capsules or oral Sudafed PE; format: in vivo, human; settings: both sexes, human, plasma, oral; 30 mg to colon via Enterion capsule (Regimen C); 14 h post-dose; read-out: Mean plasma concentration (Unconjugated)
Structures can show the parent of a compound that is named as a salt.
measure: concentration at 14 h (ng/mL)
Respond numerically; units are ng/mL and should not be typed.

According to the records, this compound CNC[C@H](O)c1cccc(O)c1 [Phenylephrine hydrochloride, phenylephrine hydrochloride] displays concentration at 14 h of 0.204

###

assay: Bioavailability of phenylephrine: plasma levels after delivery to the colon via Enterion capsules or oral Sudafed PE; type: in vivo, human; details: both sexes, human, plasma, oral; 10 mg to colon via Enterion capsule (Regimen A); 14 h post-dose; read-out: Mean plasma concentration (Unconjugated)
Counter-ions that a name gives are not always drawn.
measure: concentration at 14 h (ng/mL)
# value in ng/mL; strip the unit string

# compound CNC[C@H](O)c1cccc(O)c1 [Phenylephrine hydrochloride, phenylephrine hydrochloride] ; its concentration at 14 h = 0.059

###

assay: Bioavailability of phenylephrine: plasma levels after delivery to the colon via Enterion capsules or oral Sudafed PE; format: in vivo, human; details: both sexes, human, plasma, oral; 30 mg to colon via Enterion capsule (Regimen C); 1 h post-dose; read-out: Mean plasma concentration (Unconjugated)
Where a name gives a salt, the structure may show the parent alone.
measure: concentration at 1 h
The answer consists of two parts: a number and, after it, its unit.

Item: CNC[C@H](O)c1cccc(O)c1 [Phenylephrine hydrochloride, phenylephrine hydrochloride] | concentration at 1 h: 0.253 ng/mL

###

assay: Bioavailability of phenylephrine: plasma levels after delivery to the colon via Enterion capsules or oral Sudafed PE; format: in vivo, human; details: both sexes, human, plasma, oral; 30 mg PE-colon (Regimen C) n = 6; mean ± SD; read-out: Frel last (bioavailability relative to immediate release oral formulation), unconjugated Phenylephrine
Where a name gives a salt, the structure may show the parent alone.
measure: bioavailability
Could you kindly put the unit after your number?

Kindly note the recorded bioavailability for CNC[C@H](O)c1cccc(O)c1 [Phenylephrine hydrochloride, phenylephrine hydrochloride] , which is 333%

###

assay: Bioavailability of phenylephrine: plasma levels after delivery to the colon via Enterion capsules or oral Sudafed PE; type: in vivo, human; conditions: both sexes, human, plasma, oral; 10 mg to colon via Enterion capsule (Regimen A); 24 h post-dose; read-out: Mean plasma concentration (Unconjugated)
Counter-ions that a name gives are not always drawn.
measure: concentration at 24 h

For record CNC[C@H](O)c1cccc(O)c1 [Phenylephrine hydrochloride, phenylephrine hydrochloride] the listed concentration at 24 h is 0.059 ng/mL

###

assay: Bioavailability of phenylephrine: plasma levels after delivery to the colon via Enterion capsules or oral Sudafed PE; type: in vivo, human; conditions: both sexes, human, plasma, oral; 30 mg to colon via Enterion capsule (Regimen C); 1.5 h post-dose; read-out: Mean plasma concentration (Unconjugated)
Where a name gives a salt, the structure may show the parent alone.
measure: concentration at […]
Respond with a number, then the unit of measure.

Briefly, concentration at […] measured for CNC[C@H](O)c1cccc(O)c1 [Phenylephrine hydrochloride, phenylephrine hydrochloride] : 0.348 ng/mL

###

assay: Bioavailability of phenylephrine: plasma levels after delivery to the colon via Enterion capsules or oral Sudafed PE; type: in vivo, human; conditions: both sexes, human, plasma, oral; 10 mg to colon via Enterion capsule (Regimen A); 1.5 h post-dose; read-out: Mean plasma concentration (Unconjugated)
Counter-ions that a name gives are not always drawn.
measure: concentration at […] (ng/mL)
Supply the numeric figure in ng/mL, leaving out any unit text.

concentration at […] reported for this compound CNC[C@H](O)c1cccc(O)c1 [Phenylephrine hydrochloride, phenylephrine hydrochloride] : 0.16

###

experiment: Bioavailability of phenylephrine: plasma levels after delivery to the colon via Enterion capsules or oral Sudafed PE; format: in vivo, human; conditions: both sexes, human, plasma, oral; 10 mg PE-colon (Regimen A) n = 8; mean ± SD; read-out: Cmax, unconjugated Phenylephrine
Where a name gives a salt, the structure may show the parent alone.
measure: Cmax (ng/mL)
# number only, unit ng/mL dropped from output

// recorded Cmax for CNC[C@H](O)c1cccc(O)c1 [Phenylephrine hydrochloride, phenylephrine hydrochloride] : 0.4

###

experiment: Bioavailability of phenylephrine: plasma levels after delivery to the colon via Enterion capsules or oral Sudafed PE; assay type: in vivo, human; conditions: both sexes, human, plasma, oral, 30 mg, 30 mg phenylephrine hydrochloride delivered to the colon; read-out: mean AUC0-24 value of unconjugated phenylephrine
Counter-ions that a name gives are not always drawn.
measure: AUC(0-t) (ng·h/mL)
Report the figure in ng·h/mL without appending any unit label.

Query CNC[C@H](O)c1cccc(O)c1 [Phenylephrine hydrochloride, phenylephrine hydrochloride] yields AUC(0-t) of 5.17

###

assay: Bioavailability of phenylephrine: plasma levels after delivery to the colon via Enterion capsules or oral Sudafed PE; assay type: in vivo, human; settings: both sexes, human, plasma, oral; 30 mg to colon via Enterion capsule (Regimen C); 4 h post-dose; read-out: Mean plasma concentration (Unconjugated)
Counter-ions that a name gives are not always drawn.
measure: concentration at 4 h (ng/mL)
The reply should be a number in ng/mL, with the unit left off.

Per the record, CNC[C@H](O)c1cccc(O)c1 [Phenylephrine hydrochloride, phenylephrine hydrochloride] has concentration at 4 h of 0.309

###

Test: Bioavailability of phenylephrine: plasma levels after delivery to the colon via Enterion capsules or oral Sudafed PE
Assay type: in vivo, human
Conditions: both sexes, human, plasma, oral; 10 mg to colon via Enterion capsule (Regimen A); 16 h post-dose; read-out: Mean plasma concentration (Unconjugated)
Description: The following study was conducted to examine the phenylephrine absorption behavior in GI tract. […] Enterion™ capsules (Pharmaceutical Profiles Ltd, UK) allow for deployment of drug delivery at a desired location within the GI tract. […] The plasma was analyzed for phenylephrine in its conjugated and unconjugated forms. The amount of conjugated phenylephrine was calculated by subtracting the amount of unconjugated phenylephrine assayed from the amount of total phenylephrine assayed. […]
Counter-ions that a name gives are not always drawn.
measure: concentration at 16 h (ng/mL)
Could you give me the number in ng/mL? Just the number is fine.

# concentration at 16 h of CNC[C@H](O)c1cccc(O)c1 [Phenylephrine hydrochloride, phenylephrine hydrochloride] = 0.064
